The listing below reports Ki for molecules tested on Protease (Human immunodeficiency virus 1).
Sequence (Q9YQ12 whole entry): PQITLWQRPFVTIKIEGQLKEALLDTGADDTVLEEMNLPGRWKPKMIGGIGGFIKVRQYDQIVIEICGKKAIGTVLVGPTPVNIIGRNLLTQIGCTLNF
Return type: number; implicit unit nM.

## Input Check the records and state Ki for `COC(=O)N[C@H](C(=O)NN(CC[C@@](O)(Cc1ccccc1)C(=O)N[C@H]1c2ccccc2C[C@H]1O)Cc1ccc(-c2cccnc2)cc1)C(C)(C)C`
## Output 1.2

## Input Give the reported Ki for this molecule. `COC(=O)N[C@H](C(=O)NN(CC[C@@](O)(Cc1ccccc1)C(=O)N[C@H]1c2ccccc2C[C@H]1O)Cc1ccccc1)C(C)(C)C`
## Output 2.3

* * *

- Experiment summary: Cytotoxicity against human MT4 cells assessed as decrease in cell proliferation after 5 days by XTT assay
- Format: cell-based
Property: CC50 at 120 h

## Input Identify CC50 at 120 h associated with the compound `COC(=O)N[C@H](C(=O)NN(CC[C@@](O)(Cc1ccccc1)C(=O)N[C@H]1c2ccccc2C[C@H]1O)Cc1ccc(-c2ccc3c(c2)OCO3)cc1)C(C)(C)C`
## Output 6.1 µM

## Input State, in one line, measured CC50 at 120 h of `COC(=O)N[C@H](C(=O)NN(CC[C@@](O)(Cc1ccccc1)C(=O)N[C@H]1c2ccccc2C[C@H]1O)Cc1ccc(-c2cnn(C)c2)cc1)C(C)(C)C`
## Output > 10 µM

## Input Using known records, supply CC50 at 120 h for `CNC(=O)[C@@H](NC(=O)[C@](O)(CCN(Cc1ccc(Br)cc1)NC(=O)[C@@H](NC(=O)OC)C(C)(C)C)Cc1ccccc1)C(C)(C)C`
## Output > 10 µM

## Input Quote CC50 at 120 h reported for `CNC(=O)[C@@H](NC(=O)[C@@](O)(CCN(Cc1ccc(Br)cc1)NC(=O)[C@@H](NC(=O)OC)C(C)(C)C)Cc1ccccc1)C(C)C` please.
## Output > 10 µM

## Input Answer with the recorded CC50 at 120 h for the compound listed here: `COC(=O)N[C@H](C(=O)NN(CC[C@@](O)(Cc1ccccc1)C(=O)N[C@H]1c2ccccc2C[C@H]1O)Cc1ccc(-c2cccnc2)cc1)C(C)(C)C`
## Output 4.9 µM

## Input Identify the reported CC50 at 120 h for the following entry. `COCCNC(=O)[C@@H](NC(=O)[C@](O)(CCN(Cc1ccc(Br)cc1)NC(=O)[C@@H](NC(=O)OC)C(C)(C)C)Cc1ccccc1)C(C)C`
## Output > 10 µM

## Input Answer with the recorded CC50 at 120 h for the compound listed here: `COC(=O)N[C@H](C(=O)NN(CC[C@](O)(Cc1ccccc1)C(=O)N[C@H]1c2ccccc2C[C@H]1O)Cc1ccc(Br)cc1)C(C)(C)C`
## Output > 10 µM

## Input // Input: `COC(=O)N[C@H](C(=O)NN(CC[C@@](O)(Cc1ccccc1)C(=O)N[C@H]1c2ccccc2C[C@H]1O)Cc1ccc(-c2ccncc2)cc1)C(C)(C)C` . Output its CC50 at 120 h only.
## Output > 10 µM

## Input Determine its reported CC50 at 120 h: `COC(=O)N[C@H](C(=O)NN(CC[C@@](O)(Cc1ccccc1)C(=O)N[C@H]1c2ccccc2C[C@H]1O)Cc1ccccc1)C(C)(C)C`
## Output > 10 µM

## Input Return CC50 at 120 h for the following compound: `COC(=O)N[C@H](C(=O)NN(CC[C@@](O)(Cc1ccccc1)C(=O)N[C@H]1c2ccccc2C[C@H]1O)Cc1ccc(-c2ccc(NC(C)=O)cc2)cc1)C(C)(C)C`
## Output > 10 µM

## Input Return the recorded CC50 at 120 h value; entry: `COC(=O)N[C@H](C(=O)NN(CC[C@@](O)(Cc1ccccc1)C(=O)N[C@H]1c2ccccc2C[C@H]1O)Cc1ccc(-c2cc(F)cc(F)c2)cc1)C(C)(C)C`
## Output > 10 µM

* * *

I'd appreciate it if you could supply Ki values for the items below.
Please state the figure in nM; there is no need to write the unit.

## Input Return reported Ki for target or system UniProt:Q9YQ12, item `COCCNC(=O)[C@@H](NC(=O)[C@](O)(CCN(Cc1ccc(Br)cc1)NC(=O)[C@@H](NC(=O)OC)C(C)(C)C)Cc1ccccc1)C(C)C` .
## Output 2750

## Input Retrieve Ki on UniProt:Q9YQ12; query `COCCNC(=O)[C@@H](NC(=O)[C@@](O)(CCN(Cc1ccc(Br)cc1)NC(=O)[C@@H](NC(=O)OC)C(C)(C)C)Cc1ccccc1)C(C)C`
## Output 3.2

## Input Supply Ki measured with UniProt:Q9YQ12 for `CNC(=O)[C@@H](NC(=O)[C@](O)(CCN(Cc1ccc(Br)cc1)NC(=O)[C@@H](NC(=O)OC)C(C)(C)C)Cc1ccccc1)C(C)(C)C` .
## Output 2200

## Input Quote UniProt:Q9YQ12 Ki for entry `CNC(=O)[C@@H](NC(=O)[C@@](O)(CCN(Cc1ccc(Br)cc1)NC(=O)[C@@H](NC(=O)OC)C(C)(C)C)Cc1ccccc1)C(C)C` .
## Output 2.9

## Input Tell me Ki of `COC(=O)N[C@H](C(=O)NN(CC[C@@](O)(Cc1ccccc1)C(=O)N[C@H]1c2ccccc2C[C@H]1O)Cc1ccc(-c2cnn(C)c2)cc1)C(C)(C)C` when tested on UniProt:Q9YQ12.
## Output 1.7

## Input # lookup: UniProt:Q9YQ12 Ki, key = `COC(=O)N[C@H](C(=O)NN(CC[C@@](O)(Cc1ccccc1)C(=O)N[C@H]1c2ccccc2C[C@H]1O)Cc1ccc(Br)cc1)C(C)(C)C`
## Output 2.9

## Input Would you please give the reported Ki of `CNC(=O)[C@@H](NC(=O)[C@](O)(CCN(Cc1ccc(Br)cc1)NC(=O)[C@@H](NC(=O)OC)C(C)(C)C)Cc1ccccc1)C(C)C` with UniProt:Q9YQ12?
## Output 1240

* * *

- Tested on: Human immunodeficiency virus 1
- Experiment summary: Antiviral activity against HIV1 with protease V32I, M46I V82A mutant by cell free assay
- Assay type: functional, organism-based
Property: EC50

## Input Specify reported EC50 for the compound shown: `COC(=O)N[C@H](C(=O)NN(CC[C@@](O)(Cc1ccccc1)C(=O)N[C@H]1c2ccccc2C[C@H]1O)Cc1ccc(Br)cc1)C(C)(C)C`
## Output 0.074 µM

## Input Answer with the recorded EC50 for the compound listed here: `COC(=O)N[C@H](C(=O)NN(CC[C@@](O)(Cc1ccccc1)C(=O)N[C@H]1c2ccccc2C[C@H]1O)Cc1ccc(-c2cccnc2)cc1)C(C)(C)C`
## Output 0.027 µM

## Input In one line, give reported EC50 of the entry `COC(=O)N[C@H](C(=O)NN(CC[C@@](O)(Cc1ccccc1)C(=O)N[C@H]1c2ccccc2C[C@H]1O)Cc1ccc(-c2ccccn2)cc1)C(C)(C)C` .
## Output 0.024 µM

* * *

- Experiment summary: Metabolic stability in liver microsomes assessed as intrinsic clearance
- Assay type: ADME, Microsome
So I've got a bunch of molecules here, and I need their clearance values.
Numbers only here, please. The scale is µL/min/mg.

## Input Output clearance of `COC(=O)N[C@H](C(=O)NN(CC[C@@](O)(Cc1ccccc1)C(=O)N[C@H]1c2ccccc2C[C@H]1O)Cc1ccc(-c2ccccn2)cc1)C(C)(C)C`
## Output 20

## Input Give clearance for `COC(=O)N[C@H](C(=O)NN(Cc1ccc(-c2cccnc2)cc1)C[C@@](O)(Cc1ccccc1)C(=O)N[C@H]1c2ccccc2C[C@H]1O)C(C)(C)C`
## Output 154

* * *

- Experiment summary: Cytotoxicity against human MT4 cells assessed as decrease in cell proliferation after 5 days by XTT assay
- Type: cell-based
Property: CC50 at 120 h

## Input Tell me measured CC50 at 120 h for `COCCNC(=O)[C@@H](NC(=O)[C@@](O)(CCN(Cc1ccc(Br)cc1)NC(=O)[C@@H](NC(=O)OC)C(C)(C)C)Cc1ccccc1)C(C)C` please.
## Output > 10 µM

## Input Given `COC(=O)N[C@H](C(=O)N(Cc1ccc(Br)cc1)C[C@@](O)(Cc1ccccc1)C(=O)N[C@H]1c2ccccc2C[C@H]1O)C(C)(C)C` , respond with its CC50 at 120 h.
## Output > 10 µM

## Input Using known records, supply CC50 at 120 h for `COC(=O)N[C@H](C(=O)NN(CC[C@@](O)(Cc1ccccc1)C(=O)N[C@H]1c2ccccc2C[C@H]1O)Cc1ccc(-c2c(C)noc2C)cc1)C(C)(C)C`
## Output > 10 µM

## Input For the compound `COC(=O)N[C@H](C(=O)NN(Cc1ccc(-c2cccnc2)cc1)C[C@@](O)(Cc1ccccc1)C(=O)N[C@H]1c2ccccc2C[C@H]1O)C(C)(C)C` , report CC50 at 120 h.
## Output > 10 µM

## Input Identify CC50 at 120 h associated with the compound `CNC(=O)[C@@H](NC(=O)[C@](O)(CCN(Cc1ccc(Br)cc1)NC(=O)[C@@H](NC(=O)OC)C(C)(C)C)Cc1ccccc1)C(C)C`
## Output > 10 µM

## Input Tell me measured CC50 at 120 h for `COC(=O)N[C@H](C(=O)NN(CC[C@@](O)(Cc1ccccc1)C(=O)N[C@H]1c2ccccc2C[C@H]1O)Cc1ccc(Br)cc1)C(C)(C)C` please.
## Output 7.9 µM
